Assay: inhibition of 3D7 malaria parasite growth – strain 3D7 (AID 2306);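 also: 0% = DMSO wells and 100% = chloroquine plus artemisinin control wells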
Details: P. falciparum 3D7 erythrocytic growth, LDH absorbance, 72 h; at 2 µM; stronger effect = higher value
Recorded growth inhibition, one value per entry.
Report as a plain number; the unit % is understood.

Some solved entries appear below for comparison.
INSERT INTO assay_data (compound, output_unit, observed_result) VALUES
  ('CCc1cccc2sc(N3CCN(C(=O)c4ccc([N+](=O)[O-])o4)CC3)nc12', '%', 97),
  ('COc1cc(F)c2ncc(Cl)c(CCN3CCC(NCc4ccc5c(c4)OCCO5)CC3)c2c1', '%', 97),
  ('CCC(C)(C)c1ccc(Oc2ccc(NC(=O)Nc3ccc(Cl)c(Cl)c3)cc2)cc1', '%', 98);

Problem: Requested read-out: growth inhibition. Entry: COCCN1CCC(CNCC(C)(C)c2nc(-c3ccc(Cl)c(O)c3)c(-c3ccncc3)[nH]2)CC1
Result: 102

Problem: Requested read-out: growth inhibition. Entry: Cc1cc(N[C@@H](CC(C)C)C(=O)NCCc2ccccc2)nc(NCCc2cccs2)n1
Result: 89

Problem: Requested read-out: growth inhibition. Entry: C=CCOc1ccc(CNC2CCN(Cc3ccccc3)CC2)cc1Br
Result: 92

Problem: Requested read-out: growth inhibition. Entry: O=S(=O)(c1c(Cl)cc(Cl)cc1Cl)N1CCCCC(c2ccc(Cl)cc2)=N1
Result: 95

Problem: Requested read-out: growth inhibition. Entry: CC(CN1CCN(C)CC1)C(=O)Nc1ccc(-c2cccc(-c3nc4ccc(F)cc4[nH]3)c2)cc1 (centres undefined)
Result: 100

Problem: Requested read-out: growth inhibition. Entry: COc1ccc(NC(=O)/C=C/c2ccccc2Cl)cc1OCCN1CCC(N2CCCCC2)CC1
Result: 101

Problem: Requested read-out: growth inhibition. Entry: CCC(C)Oc1ccc2nc(N)nc(N)c2c1Cl (centres undefined)
Result: 96

---

Experiment: antimalarial activity against Dd2 strain (AID 2302);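 also: 0% = DMSO untreated growth and 100% = chloroquine plus artemisinin killed control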
Conditions: P. falciparum Dd2 in RBCs, LDH growth readout, 72 h; at 2 µM; stronger effect = higher value
EXPERIMENTAL ENDPOINT: growth inhibition (%)
Report as a plain number; the unit % is understood.

Some solved entries appear below for comparison.
INSERT INTO measurements (compound, experimental_endpoint, observed_result) VALUES
  ('Cc1ccc(Nc2nc(NN=Cc3cc4c(cc3Br)OCO4)nc(Nc3ccc([N+](=O)[O-])cc3)n2)cc1C', 'growth inhibition', 89),
  ('CC(C)N1CCC(N(Cc2ccc(-c3ccc(C(F)(F)F)cc3)cc2)C(=O)CCCn2c(CCc3cccc(F)c3F)nc(=O)c3ccccc32)CC1', 'growth inhibition', 60),
  ('CN(CC(=O)Nc1ccc(F)c(F)c1F)c1ncnc2sc(-c3ccccc3)cc12', 'growth inhibition', 34),
  ('COc1ccnc(NCCCNCc2cn(S(=O)(=O)c3ccccc3)c3ccccc23)c1', 'growth inhibition', 18),
  ('CCC(NC(=O)c1ccccc1NC(=O)c1ccc(C)cc1)C(=O)OC (stereo not given)', 'growth inhibition', 86);

Problem: Requested read-out: growth inhibition. Entry: CC=CCON1C(N)=NC(N)=NC1(C)C
Result: 1

Problem: Requested read-out: growth inhibition. Entry: CCOc1cc(C(=O)NCc2cccc(C(F)(F)F)c2)ccc1-c1nc2ccc(Cl)cc2[nH]1
Result: 31

Problem: Requested read-out: growth inhibition. Entry: Cc1cc(NCC(c2ccccc2)c2ccccc2)nc(NCc2ccc(C(F)(F)F)cc2)n1
Result: 79

Problem: Requested read-out: growth inhibition. Entry: Cc1cnc(Nc2ccccc2)nc1NCCC(=O)Nc1ccccc1
Result: 7

Problem: Requested read-out: growth inhibition. Entry: COC(=O)C(NC(=O)c1ccc(-c2ccc(-c3nc4ccccc4[nH]3)s2)cc1)c1ccc(O)cc1 (stereo not given)
Result: 49

Problem: Requested read-out: growth inhibition. Entry: Cc1cc(N[C@@H](CC(C)C)C(=O)NCCOc2ccccc2)nc(NCCc2ccc(F)cc2)n1
Result: 54

Problem: Requested read-out: growth inhibition. Entry: Cc1cc(NC2CCN(CC3CCCCC3)CC2)nc(Nc2ccccc2Cl)n1
Result: 31

Problem: Requested read-out: growth inhibition. Entry: c1ccc2[nH]c(-c3ccc(-c4ccc(CNCC5CCCO5)cc4)s3)nc2c1 (stereo not given)
Result: 87
